- TESTED_TARGET: 17β-HSDcl (Curvularia lunata, UniProt O93874, H111A)
- Construct: GST fusion (pGex-17β-HSDcl) from E. coli JM107, GST cut off with thrombin; 28 kDa subunit; wild type and H111A homodimeric, H111L and R129D monomeric
- PROTOCOL_SUMMARY: intrinsic fluorescence quenching titration

{"SUBSTANCE_SMILES": "NC(=O)c1ccc[n+]([C@@H]2O[C@H](COP(=O)(O)OP(=O)(O)OC[C@H]3O[C@@H](n4cnc5c(N)ncnc54)[C@H](OP(=O)(O)O)[C@@H]3O)[C@@H](O)[C@H]2O)c1", "Kd": "5.8 µM"}

====

- TESTED_TARGET: 17β-HSDcl (Curvularia lunata, UniProt O93874, R129D)
- Construct: GST fusion (pGex-17β-HSDcl) from E. coli JM107, GST cut off with thrombin; 28 kDa subunit; wild type and H111A homodimeric, H111L and R129D monomeric
- PROTOCOL_SUMMARY: intrinsic fluorescence quenching titration
pKd: −log10 of the molar value.

{"SUBSTANCE_SMILES": "NC(=O)c1ccc[n+]([C@@H]2O[C@H](COP(=O)(O)OP(=O)(O)OC[C@H]3O[C@@H](n4cnc5c(N)ncnc54)[C@H](OP(=O)(O)O)[C@@H]3O)[C@@H](O)[C@H]2O)c1", "pKd": 4.89}
